Please respond with reported yeast fitness for every item in the list.
B1: tRNA (parent)
chain: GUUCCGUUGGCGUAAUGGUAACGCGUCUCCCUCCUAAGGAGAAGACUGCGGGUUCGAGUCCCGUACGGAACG

Variants of: B1
Assay: yeast fitness relative to wild type (ratio to wild type); higher = fitter; tRNA-Arg(CCU), competitive growth, 37 C, YPD
Variants at the floor of the assay were thinned out.

// sample GUUCCAUUGGCGUAAUGGUAACGCAUCUCCCUCCUAAGGAGAAGACUGCGGGUUCGAGUCCCGUACGGAACG [G6A G25A] , its yeast fitness was 0.859

The recorded yeast fitness for entry GUUCCGUUAGCGUAAUGGUAACGCGGCUCACUCCUAAGGAGAAGACUGCGGGUUCGAGUCCCGUACGGAACG [G9A U26G C30A] equals 0.636

For this variant ( GUUCCGUUGGCGUAAAGGUAACGAGUCUCCCUCCUAAGGAGAGGACUGCGGGUUCGAGUCCCGUACGAAACG [U16A C24A A43G G68A] ), measured yeast fitness is ≤ 0.5

// yeast fitness value for GUUCCGUUGGCGUAAUGGUAACGCGUCUCCCUCCUAAGGUGAAGACUGCGGGUUCGAUUCCCGUACGGAACG [A40U G58U] : 0.768

Briefly, yeast fitness measured for GUUCCGUUGGAGUAAUGGUAACCCGUCUCCCUCCUAAGGAGCCGACUGCGGGUUCGAGUCCCGUACGGAACG [C11A G23C A42C A43C] : ≤ 0.5

Briefly, yeast fitness measured for GUUCCGUUGGCGUAAUGGUAACGCGUCUCCCUCCUUAGGAGACGACUGAGGGUUGGAGUCCCGUACGGAACG [A36U A43C C49A C55G] : ≤ 0.5

Data point: GUUCCGUUGGCGUAAUGGUAACGCGUCCCCCUCCUAAGGAGAAGACUGCGGGUUCGAGUCCCGUUCGGAACG [U28C A65U] ; yeast fitness = 0.855

Form: variant = GUUUCGUUGGCGUAAUGGUAACGCGUCUCCCUCCUAGGGAGAAGACUGCGGGUUCGAGUCCCGUACGGAACG [C4U A37G] ; yeast fitness = 0.875

The variant listed as GUUCCGUUGACGUAGUGGUAACGCGUUUCCCUCCUAAGGAGCAGACUGCCGGUUCGAGUCCCGUACGGAACG [G10A A15G C27U A42C G50C] has a reported yeast fitness of ≤ 0.5

yeast fitness for GUUUCGUUGGCGUAAUGGUCACGCGUCUCCCUCCUAAGGAGAAGACUGCGGGUUAGAGUCCCGUACGGAACG [C4U A20C C55A] is 0.721

variant GUUCCGUUGGCGUAAUGGUAACGCGUCUCCCUCCUAAGGAGAAGACUGCGGGUUCGCGUCGCGUACGGCACG [A57C C61G A69C] , yeast fitness observed: ≤ 0.5

Entry under test: GUUCAGUUGGCGUACUGGUAACGCGUCUCCCUCCUAAGCAGAAGACUGCGGGUUCGAGUCCCGUACGGAACG [C5A A15C G39C] . Its yeast fitness was ≤ 0.5

Record summary for GUUCCGUUGGCGUAAUGAUACCUCGUCUCCCACCUAAGGAGUAGACUCCGGGUUCGAGUCCCGAACGGAACG [G18A A21C G23U U32A A42U G48C U64A] : reported yeast fitness = 0.529

The value of yeast fitness measured for the variant GUUCCGUUGGCGUAAUGGUAACGCGUCUCCCUCCUAAGGAGAAGACCGCGGGUUCGACUCCCGUACGGAACG [U47C G58C] turned out to be 0.971

# variant GUUCCGUUGGCGUAAUGGUAACGCGUCUUCCUCCUAAGUAGAAGACUGGGGGUUCGAGUCCCGUACGGAACG [C29U G39U C49G] ; its yeast fitness = ≤ 0.5

Noted for GUUCCGUUGGCGUAAUGGUAACGCGUCUCCCUCCUAAGGAGAAGACUGCUGGUUCGAGUCCCGUACGGCACG [G50U A69C] : its yeast fitness reads 0.958

Lab note: measured yeast fitness of GUUCCGUUGGUGUAAUGGCAACGCGUGUCCCUCCUAAGGAGAAGACUGCGGGUUCGAGUCCCGUACGGAACG [C11U U19C C27G] was 0.66

Lookup result for GUUCCGUUGGCGUAAUGGUAAUGCGUCUCCCUCCUAAGGAGUAGACUGGGGGUUCGAGUCCCGUACGGAACG [C22U A42U C49G] ; measured yeast fitness: ≤ 0.5

Measured yeast fitness, GUUCCGUUGACGUAAUAGAAACGCGUCUUCCUCCUAAGGAGAAGACUGGGGGUUCGAGUCCCGUACGGAACG [G10A G17A U19A C29U C49G] : ≤ 0.5

Entry under test: GUUCCGUUGGCGUAAUGGUAACGCGUCUCCCUUCUAAGGAGAGGACUCCGGGUUCGAGUCCCGUACGGAACG [C33U A43G G48C] . Its yeast fitness was ≤ 0.5

// yeast fitness value for GUUCCGUUGGCGUAAUGGUAACGCGUCCCCCUCCUAAGGAGAAGACUGCGGGUUCGACUCCCGUACGGAACG [U28C G58C] : 0.912

// GUUCCGUUGGCGUAAUGGUAACGCGUCUCCCUCCUAAGGAGAAGACAGCGGGUUCGAGUCCCGUACGGCACG [U47A A69C] : yeast fitness value = 0.82
